Protein target, amino acids: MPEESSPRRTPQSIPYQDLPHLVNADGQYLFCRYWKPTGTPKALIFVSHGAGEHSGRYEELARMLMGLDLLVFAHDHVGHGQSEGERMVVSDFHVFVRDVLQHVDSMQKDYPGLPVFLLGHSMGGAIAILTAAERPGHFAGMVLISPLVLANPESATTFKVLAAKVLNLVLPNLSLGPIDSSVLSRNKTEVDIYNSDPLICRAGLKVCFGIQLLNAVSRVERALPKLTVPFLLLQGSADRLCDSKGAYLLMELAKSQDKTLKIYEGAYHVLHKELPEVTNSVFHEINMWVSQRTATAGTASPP
pIC50: −log10 of the molar value.
VALUE_TYPE: pIC50

Some solved entries appear below for comparison.
{"GIVEN_SMILES": "CS(=O)(=O)c1cccc(CC2CC3(C2)CN(C(=O)N2CC4(CC(c5ccc(C(F)(F)F)nc5)C4)C2)C3)c1", "QUANTITATIVE_READOUT": 6.72}
{"GIVEN_SMILES": "CS(=O)(=O)c1cc(F)ccc1CC1CC2(C1)CN(C(=O)N1CC3(CC(n4cnc(C5CC5)n4)C3)C1)C2", "QUANTITATIVE_READOUT": 9.36}
{"GIVEN_SMILES": "O=C(N1CCC(Oc2cccc(F)c2)CC1)N1CC2(CC(n3cnc(C4CC4)n3)C2)C1", "QUANTITATIVE_READOUT": 7.12}

1: O=C(N1CC(OCc2cncc(C(F)(F)F)c2)C1)N1CC2(CC(n3cnc(C4CC4)n3)C2)C1
2: O=C(N1CC(c2ccc(N3CC[C@@](O)(C(F)(F)F)C3)nc2)C1)N1CC2(CC(n3cnc(C4CC4)n3)C2)C1
3: O=C(N1CC(C23CC(c4nnc(C5(C(F)(F)F)CC5)[nH]4)(C2)C3)C1)N1CC2(CC(n3cnc(C(F)(F)F)n3)C2)C1
4: COc1cc(C(F)(F)F)ccc1CNC1CN(C(=O)N2CC3(CC(n4cnc(C5(O)CC5)n4)C3)C2)C1
Task item: Please rank these molecules by pIC50 in descending order. Kindly provide the labels arranged according to the requested ordering.
Reply: 2, 3, 1, 4

###

Protein target, amino acids: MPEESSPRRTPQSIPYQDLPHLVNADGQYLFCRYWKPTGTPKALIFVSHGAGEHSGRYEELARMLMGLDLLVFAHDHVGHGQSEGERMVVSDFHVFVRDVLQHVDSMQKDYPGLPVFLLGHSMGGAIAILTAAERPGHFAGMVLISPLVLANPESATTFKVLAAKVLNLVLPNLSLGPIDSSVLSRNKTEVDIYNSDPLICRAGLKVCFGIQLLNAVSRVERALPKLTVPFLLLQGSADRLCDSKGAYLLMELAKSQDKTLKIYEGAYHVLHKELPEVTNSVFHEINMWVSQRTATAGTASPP
VALUE_TYPE: IC50 (nM)

{"GIVEN_SMILES": "CS(=O)(=O)c1cc(CC2CC3(C2)CN(C(=O)N2CC4(CC(n5cnc(C6(O)CC6)n5)C4)C2)C3)cc(C(F)(F)F)c1", "VALUE_TYPE": "IC50", "QUANTITATIVE_READOUT": 1}
{"GIVEN_SMILES": "O=C(N1CC2(CC(n3cnc(C4CC4)n3)C2)C1)N1CC2(C1)CN(S(=O)(=O)c1ccc(F)cc1C(F)(F)F)C2", "VALUE_TYPE": "IC50", "QUANTITATIVE_READOUT": 1.4}
{"GIVEN_SMILES": "O=C(N1CC2(CC(n3cnc(C4CC4)n3)C2)C1)N1CC2(C1)CN(S(=O)(=O)c1cccc(C(F)(F)F)c1)C2", "VALUE_TYPE": "IC50", "QUANTITATIVE_READOUT": 1.2}
